B1: glmS ribozyme (parent)
chain: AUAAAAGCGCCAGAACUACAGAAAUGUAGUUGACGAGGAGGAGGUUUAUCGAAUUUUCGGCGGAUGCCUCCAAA

variants of: B1; assay: self-cleavage kobs at 10000 uM GlcN6P; higher = faster cleavage; RNA array; conditions: with glucosamine-6-phosphate
Fewer inactive variants are shown than the library holds.
Assay metric: self-cleavage kobs at 10000 uM GlcN6P (s⁻¹)

INSERT INTO assay_data (variant_name, assay_metric, unit_text, relation_sign, number) VALUES
  ('C8G G32C G62U', 'self-cleavage kobs at 10000 uM GlcN6P', 's⁻¹', '<', '1e-05'),
  ('A6U G44U C71A', 'self-cleavage kobs at 10000 uM GlcN6P', 's⁻¹', '<', '1e-05'),
  ('A14U G51U', 'self-cleavage kobs at 10000 uM GlcN6P', 's⁻¹', '<', '1e-05'),
  ('A12C C16G A36U', 'self-cleavage kobs at 10000 uM GlcN6P', 's⁻¹', '<', '1e-05'),
  ('C11A U54A', 'self-cleavage kobs at 10000 uM GlcN6P', 's⁻¹', '=', 0.000145),
  ('C50A C70U', 'self-cleavage kobs at 10000 uM GlcN6P', 's⁻¹', '=', '1.9e-05'),
  ('U31C G40U G66A', 'self-cleavage kobs at 10000 uM GlcN6P', 's⁻¹', '=', 0.00025),
  ('U47G C71U', 'self-cleavage kobs at 10000 uM GlcN6P', 's⁻¹', '=', 0.00702),
  ('C10A C34G', 'self-cleavage kobs at 10000 uM GlcN6P', 's⁻¹', '<', '1e-05'),
  ('U31A G40A', 'self-cleavage kobs at 10000 uM GlcN6P', 's⁻¹', '=', 0.00201),
  ('C8U G13C G51A', 'self-cleavage kobs at 10000 uM GlcN6P', 's⁻¹', '<', '1e-05');
